Where these numbers come from: patent US8940765B2

- TARGET OR SYSTEM: acetylcholine muscarinic M1 receptor (Homo sapiens, UniProt P11229)
- Sequence (P11229 1-460): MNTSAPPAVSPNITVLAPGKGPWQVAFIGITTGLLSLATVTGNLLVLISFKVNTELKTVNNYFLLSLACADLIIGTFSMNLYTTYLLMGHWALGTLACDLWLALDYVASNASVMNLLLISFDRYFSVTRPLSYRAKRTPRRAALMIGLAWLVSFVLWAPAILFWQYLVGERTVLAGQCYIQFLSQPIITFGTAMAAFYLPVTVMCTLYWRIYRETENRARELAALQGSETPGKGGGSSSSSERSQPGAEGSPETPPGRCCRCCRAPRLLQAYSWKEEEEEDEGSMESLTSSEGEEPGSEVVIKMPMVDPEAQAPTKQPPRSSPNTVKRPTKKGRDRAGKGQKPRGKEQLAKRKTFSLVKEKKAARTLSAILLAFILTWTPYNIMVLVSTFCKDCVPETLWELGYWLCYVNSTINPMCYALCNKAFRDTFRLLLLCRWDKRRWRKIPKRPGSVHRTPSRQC
- ASSAY TEXT: muscarinic FLIPR assay: intracellular calcium in CHOnfat/hM1 cells, potentiation of EC20 acetylcholine
- TEST PARAMETERS: FLIPR Ca2+, 4 min preincubation, then EC20 acetylcholine (3 nM final), read-out: IP Value (inflection point)
Recorded log10 EC50 by entry
MEASURE NAME: log10 EC50 (log10 of the value in nM)

| QUERY SMILES | log10 EC50 |
| --- | --- |
| Cc1ccnc(C2(C#N)CCN(Cc3cc(C(=O)N[C@H]4CCOC[C@@H]4O)nc4ccccc34)CC2)c1 | 1.43 |
| N#CC1(c2ccccc2F)CCN(Cc2cc(C(=O)N[C@H]3CCCC[C@@H]3O)nc3ccccc23)CC1 | 1.91 |
| N#CC1(c2ccccc2)CCN(Cc2cc(C(=O)N[C@H]3CCCC[C@@H]3O)nc3ccccc23)CC1 | 2.51 |
| N#CC1(c2ccccc2Cl)CCN(Cc2cc(C(=O)N[C@H]3CCCC[C@@H]3O)nc3ccccc23)CC1 | 2.07 |
| Cn1cc(N2CCN(Cc3cc(C(=O)N[C@H]4CCCC[C@@H]4O)nc4ccccc34)CC2)cn1 | 2.57 |
| N#CC1(c2cccnc2)CCN(Cc2cc(C(=O)N[C@H]3CCCC[C@@H]3O)nc3ccccc23)CC1 | 1.73 |
| Cc1ccnc(C2(C#N)CCN(Cc3cc(C(=O)N[C@H]4CCCC[C@@H]4O)nc4ccccc34)CC2)c1 | 1.30 |
| Cc1ccccc1C1(C#N)CCN(Cc2cc(C(=O)N[C@H]3CCCC[C@@H]3O)nc3ccccc23)CC1 | 2.13 |
| N#CC1(c2ccccn2)CCN(Cc2cc(C(=O)N[C@H]3CCCC[C@@H]3O)nc3ccccc23)CC1 | 1.73 |
